Hi! I'm sharing some pIC50 results obtained with Acetylcholinesterase (Electrophorus electricus).
Sequence (O42275 whole entry): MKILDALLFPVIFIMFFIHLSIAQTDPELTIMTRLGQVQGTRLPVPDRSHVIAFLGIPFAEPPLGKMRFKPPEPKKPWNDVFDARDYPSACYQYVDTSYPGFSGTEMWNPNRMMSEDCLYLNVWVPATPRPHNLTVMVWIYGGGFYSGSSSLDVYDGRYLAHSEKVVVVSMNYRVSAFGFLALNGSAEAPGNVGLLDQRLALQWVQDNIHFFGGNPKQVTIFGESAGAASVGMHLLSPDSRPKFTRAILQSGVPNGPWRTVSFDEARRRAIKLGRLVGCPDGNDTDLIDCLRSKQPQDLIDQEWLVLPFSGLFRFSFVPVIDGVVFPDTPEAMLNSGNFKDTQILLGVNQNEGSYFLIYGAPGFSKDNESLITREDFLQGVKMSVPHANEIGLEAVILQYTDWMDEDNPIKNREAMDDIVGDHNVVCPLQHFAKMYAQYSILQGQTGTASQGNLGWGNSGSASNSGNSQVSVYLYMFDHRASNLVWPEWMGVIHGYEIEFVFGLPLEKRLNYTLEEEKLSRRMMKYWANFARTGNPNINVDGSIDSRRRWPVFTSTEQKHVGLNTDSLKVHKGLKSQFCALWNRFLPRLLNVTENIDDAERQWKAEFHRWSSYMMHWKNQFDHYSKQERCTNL
Please treat pIC50 as minus the base-10 logarithm of the molar concentration.

Problem: For the molecule COc1c([C@@]23CCN(C)[C@]4(CCC(=O)N4c4c(O)cccc42)C3=O)cc2c(c1OC)N(C)[C@@H]1C=C[C@@]34CCCN5CC[C@@]21[C@]53OC(=O)C4 , what pIC50 is on record?
Result: 3.65

Problem: Okay, and C/C=C1/CN2CC[C@]34c5cccc(OC)c5N[C@H]3C[C@H]1C[C@H]24 ?
Result: 4.24

Problem: Okay, and C/C=C1/CN2CC[C@@]34c5ccccc5N(C)[C@H]5O[C@]3(O)[C@@H]2C[C@@H]1[C@]54C(=O)OC ?
Result: 3.42
